# study.system: human recombinant melanocortin-1 receptor (human, UniProt Q01726 1-317)
# Sequence (Q01726 whole entry): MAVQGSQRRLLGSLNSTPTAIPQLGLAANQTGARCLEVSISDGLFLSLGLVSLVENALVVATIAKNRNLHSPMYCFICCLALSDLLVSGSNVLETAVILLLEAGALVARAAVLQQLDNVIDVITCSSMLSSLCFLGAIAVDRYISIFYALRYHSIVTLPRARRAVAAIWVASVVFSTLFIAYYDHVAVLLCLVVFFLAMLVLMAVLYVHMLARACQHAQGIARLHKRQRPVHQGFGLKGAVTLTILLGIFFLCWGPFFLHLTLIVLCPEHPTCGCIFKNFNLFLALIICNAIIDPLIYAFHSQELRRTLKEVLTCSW
# experiment.notes: cell-based or functional assay
Bridge positions count the residues as written; N and C are the ends. Square brackets hold non-standard residues; d marks the D form. Orn = NCCC[C@H](N)C(=O)O
measured.quantity: hMC1-R Emax (%)

{"columns": ["binder", "hMC1-R Emax (%)"],
 "data": [
  ["Ac-[dR][Orn]Q[dF]RWE-NH2 (lactam 2-7) [Ac-D-Arg-cyclo(Orn-Gln-D-Phe-Arg-Trp-Glu)-NH2]", 85],
  ["Ac-RKN[dF]RWD-NH2 (lactam 2-7) [Ac-Arg-cyclo(Lys-Asn-D-Phe-Arg-Trp-Asp)-NH2]", 91],
  ["RKNFRXD (HELM PEPTIDE1{[ac].R.K.N.[dF].R.[O=C([C@H](Cc1ccc2ccccc2c1)N[*:1])[*:2]].D.[am]}$PEPTIDE1,PEPTIDE1,3:R3-8:R3$$$V2.0; SMILES CC(=O)N[C@@H](CCCNC(=N)N)C(=O)N[C@H]1CCCCNC(=O)C[C@@H](C(N)=O)NC(=O)[C@H](Cc2ccc3ccccc3c2)NC(=O)[C@H](CCCNC(=N)N)NC(=O)[C@@H](Cc2ccccc2)NC(=O)[C@H](CC(N)=O)NC1=O, also called peptide No. 162) [Ac-Arg-cyclo(Lys-Asn-D-Phe-Arg-Nal 2-Asp)-NH2]", 89],
  ["RXQFRWX (N-acetyl; X2 = Dab; D-Phe 4; X7 = hGlu; side-chain lactam Dab2-hGlu7; C-terminal amide, also called peptide No. 159) [Ac-Arg-cyclo(Dab-Gln-D-Phe-Arg-Trp-hGlu)-NH2]", 98]
]}

Origin of values: patent US20120178701A1
